Where do the numbers come from? From patent US20260200925A1.

molecular target: Recombinant KRAS-G12D (SEQ ID NO: 2) (Homo sapiens, UniProt P01116, G12D); test: SOS-catalyzed guanine nucleotide exchange (GNE) assay, KRAS-G12D
Sequence (P01116 with tags, fused parts or gaps isoform P01116-2 G12D): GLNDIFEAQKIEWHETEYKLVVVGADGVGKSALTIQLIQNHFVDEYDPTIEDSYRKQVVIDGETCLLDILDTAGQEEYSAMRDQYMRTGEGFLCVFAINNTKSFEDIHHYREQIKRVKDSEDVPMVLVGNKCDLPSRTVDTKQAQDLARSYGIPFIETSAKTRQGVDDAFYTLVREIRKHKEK
pIC50: −log10 of the molar value.
We use 7 as the dividing line for pIC50: on or above the line is label 1, below is label 0.

Compound	Assigned class
Cc1cc(N)nc(-c2c(Cl)cc3c(N4CCCC(C)(O)C4)nc(OC[C@@]45CCCN4C[C@H](F)C5)nc3c2F)c1C(F)(F)F (single isomer, unassigned) [Ex-26]	label 0
C#Cc1c(F)ccc2cccc(-c3c(F)cc4c(N5CCC[C@@](C)(O)C5)nc(OC[C@@]56CCCN5C[C@H](F)C6)nc4c3F)c12 [Ex-47]	label 0
CN(C)CC1(COc2nc(N3CCC[C@@](C)(O)C3)c3cnc(-c4cc(O)cc5cccc(Cl)c45)c(F)c3n2)CC1 [Ex-20]	label 1
CN(C)CC1(COc2nc(N3CCCC(O)CC3)c3cc(Cl)c(-c4ccc(F)c5sc(N)nc45)c(F)c3n2)CC1 (centres unmarked) [Ex-17]	label 0
CC1(O)CCCN(c2nc(OC[C@@]34CCCN3C[C@H](F)C4)nc3c(F)c(-c4cc(O)cc5cccc(Cl)c45)c(F)cc23)C1 (some centres unmarked) [Ex-29]	label 1
C#Cc1cccc2cc(O)cc(-c3c(F)cc4c(N5CCC[C@@](C)(O)C5)nc(OCC5(CN(C)C)CC5)nc4c3F)c12 (single isomer, unassigned) [Ex-11]	label 1
C#Cc1cccc2cc(O)cc(-c3ncc4c(N5CCC[C@@](C)(O)C5)nc(OC[C@]5(CN(C)C)CC5(F)F)nc4c3F)c12 [Ex-24]	label 1
Cc1cc2[nH]ncc2c(-c2c(F)cc3c(N4CCC[C@@](C)(O)C4)nc(OCC4(CN5CC[C@@H](F)C5)CC4)nc3c2F)c1C [Ex-39]	label 0
C#Cc1cccc2cc(O)cc(-c3ncc4c(N5CCC[C@@](C)(O)C5)nc(OC[C@@]56CCCN5C[C@H](F)C6)nc4c3F)c12 [Ex-23]	label 1
C#Cc1cccc2cc(O)cc(-c3ncc4c(N5CCC[C@@](C)(O)C5)nc(OCC56CCCN5CCC6)nc4c3F)c12 [Ex-22]	label 1
Cc1cc2[nH]ncc2c(-c2c(F)cc3c(N4CCOC[C@@](C)(O)C4)nc(OC[C@@]45CCCN4C[C@H](F)C5)nc3c2F)c1C(F)(F)F [Ex-41]	label 1
CC1(O)CCCCN(c2nc(OC[C@@]34CCCN3C[C@H](F)C4)nc3c(F)c(-c4cc(O)cc5cccc(Cl)c45)c(F)cc23)C1 (single isomer, unassigned) [Ex-36]	label 0
C#Cc1cccc2cccc(-c3c(F)cc4c(N5CCC[C@](C)(O)C5)nc(OC[C@@]56CCCN5C[C@H](F)C6)nc4c3F)c12 (single isomer, unassigned) [Ex-46]	label 0

* * *

target: Recombinant KRAS-G12V (SEQ ID NO: 3) (Homo sapiens, UniProt P01116, G12V); experiment: SOS-catalyzed guanine nucleotide exchange (GNE) assay, KRAS-G12V
Sequence (P01116 with tags, fused parts or gaps isoform P01116-2 G12V): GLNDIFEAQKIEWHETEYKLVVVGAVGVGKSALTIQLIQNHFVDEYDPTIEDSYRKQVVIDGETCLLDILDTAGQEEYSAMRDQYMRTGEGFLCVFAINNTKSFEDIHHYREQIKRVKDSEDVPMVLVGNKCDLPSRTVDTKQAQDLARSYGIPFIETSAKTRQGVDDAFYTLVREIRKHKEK
pIC50: −log10 of the molar value.
Property measured: pIC50

Compound	Tgt	Recorded measurement
Cc1cc2[nH]ncc2c(-c2c(F)cc3c(N4CCC[C@@](C)(O)C4)nc(OCC4(CN5CC[C@@H](F)C5)CC4)nc3c2F)c1C	Recombinant KRAS-G12V (SEQ ID NO: 3) (Homo sapiens, UniProt P01116, G12V)	5.64
C#Cc1cccc2cc(O)cc(-c3c(F)cc4c(N5CCCC(O)(C(F)F)C5)nc(OC[C@@]56CCCN5C[C@H](F)C6)nc4c3F)c12 (stereo partly drawn)	Recombinant KRAS-G12V (SEQ ID NO: 3) (Homo sapiens, UniProt P01116, G12V)	8.00
C#Cc1c(F)ccc2cccc(-c3c(F)cc4c(N5CCC[C@@](C)(O)C5)nc(OC[C@@]56CCCN5[C@H](COC(=O)N(C)C)CC6)nc4c3F)c12	Recombinant KRAS-G12V (SEQ ID NO: 3) (Homo sapiens, UniProt P01116, G12V)	7.92
C#Cc1cccc2cc(O)cc(-c3ncc4c(N5CCC[C@@](C)(O)C5)nc(OCC56CCCN5CCC6)nc4c3F)c12	Recombinant KRAS-G12V (SEQ ID NO: 3) (Homo sapiens, UniProt P01116, G12V)	8.70
Cc1cc(N)nc(-c2c(Cl)cc3c(N4CCCC(C)(O)C4)nc(OC[C@@]45CCCN4C[C@H](F)C5)nc3c2F)c1C(F)(F)F (single isomer, unassigned)	Recombinant KRAS-G12V (SEQ ID NO: 3) (Homo sapiens, UniProt P01116, G12V)	5.81
CC1(O)CN(c2nc(OC[C@@]34CCCN3C[C@H](F)C4)nc3c(F)c(-c4cc(O)cc5cccc(Cl)c45)c(F)cc23)CCC1F (stereo partly drawn)	Recombinant KRAS-G12V (SEQ ID NO: 3) (Homo sapiens, UniProt P01116, G12V)	7.40

* * *

molecular target: NRAS (SEQ ID NO: 5) (Homo sapiens)
Sequence (P01111 with tags, fused parts or gaps): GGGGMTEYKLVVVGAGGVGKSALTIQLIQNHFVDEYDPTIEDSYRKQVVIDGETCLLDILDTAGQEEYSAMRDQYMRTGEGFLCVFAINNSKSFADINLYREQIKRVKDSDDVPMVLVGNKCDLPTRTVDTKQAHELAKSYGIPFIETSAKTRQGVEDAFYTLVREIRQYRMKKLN
pIC50: −log10 of the molar value.

Molecule	pIC50
CN(C)CC1(COc2nc(N3CCCC(C)(O)C3)c3cc(F)c(-c4cc(O)cc5ccccc45)c(F)c3n2)CC1 (stereo not shown) [Ex-8]	< 5.00

* * *

// reported IC50 per item
molecular target: Recombinant KRAS-G12V (SEQ ID NO: 3) (Homo sapiens, UniProt P01116, G12V); experiment: SOS-catalyzed guanine nucleotide exchange (GNE) assay, KRAS-G12V
Property measured: IC50 (nM)

Molecule	Recorded measurement
C#Cc1cccc2cc(O)cc(-c3cnc4c(N5CCC[C@@](C)(O)C5)nc(OCC5(CN(C)C)CC5)nc4c3)c12 [Ex-19]	47
Oc1cc(-c2c(F)cc3c(N4CCCC(O)(C(F)(F)F)C4)nc(OC[C@@]45CCCN4C[C@H](F)C5)nc3c2F)c2c(Cl)cccc2c1 (single isomer, unassigned) [Ex-38]	598
C#Cc1cccc2cc(O)cc(-c3ncc4c(N5CCC[C@@](C)(O)C5)nc(OCC5(CN(C)C)CC5)nc4c3F)c12 [Ex-21]	1
C#Cc1c(F)ccc2cccc(-c3c(F)cc4c(N5CCC[C@@](C)(O)C5)nc(OC[C@@]56CCCN5C[C@H](F)C6)nc4c3F)c12 [Ex-47]	390
Oc1cc(-c2c(F)cc3c(N4CCCCC(O)C4)nc(OC[C@@]45CCCN4C[C@H](F)C5)nc3c2F)c2c(Cl)cccc2c1 (stereo partly drawn) [Ex-34]	589
CN(C)CC1(COc2nc(N3CCCC(C)(O)C3)c3cc(F)c(-c4cc(O)ccc4OC(F)(F)F)c(F)c3n2)CC1 (stereo not drawn) [Ex-9]	381

* * *

# IC50 per record follows
target: HRAS (SEQ ID NO: 4) (Homo sapiens, UniProt P01112)
Sequence (P01112 with tags, fused parts or gaps): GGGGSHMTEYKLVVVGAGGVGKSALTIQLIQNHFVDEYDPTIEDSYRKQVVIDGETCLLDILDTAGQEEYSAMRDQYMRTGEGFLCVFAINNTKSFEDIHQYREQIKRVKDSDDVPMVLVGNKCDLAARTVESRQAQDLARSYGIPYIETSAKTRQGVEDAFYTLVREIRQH
Property measured: IC50

Molecule	Property measured	Recorded measurement
C#Cc1cccc2cc(O)cc(-c3c(F)cc4c(N5CCC[C@@](C)(O)C5)nc(OC[C@@]56CCCN5C[C@H](F)C6)nc4c3F)c12	IC50	> 10 µM
CN(C)CC1(COc2nc(N3CCCC(O)CC3)c3cc(Cl)c(-c4ccc(F)c5sc(N)nc45)c(F)c3n2)CC1 (stereo not drawn)	IC50	> 9.95 µM
C#Cc1cccc2cc(O)cc(-c3c(Cl)cc4c(N5CCC[C@@](C)(O)C5)nc(OC[C@@]56CCCN5C[C@H](F)C6)nc4c3F)c12	IC50	> 9.95 µM

* * *

biological target: Recombinant KRAS-G12V (SEQ ID NO: 3) (Homo sapiens, UniProt P01116, G12V); assay: SOS-catalyzed guanine nucleotide exchange (GNE) assay, KRAS-G12V
pIC50: −log10 of the molar value.
Rule: Satisfied for pIC50 not less than 7, Not satisfied for anything less.

Compound	Assigned class
CN(C)C[C@@]1(COc2nc(N3CCC[C@@](C)(O)C3)c3cc(F)c(-c4cccc5ccc(F)c(Cl)c45)c(F)c3n2)CC1(F)F	Not satisfied
CC1(O)CCCN(c2nc(OC[C@@]34CCCN3C[C@H](F)C4)nc3c(F)c(-c4cc(O)cc5cccc(Cl)c45)c(F)cc23)C1 (stereo partly shown)	Satisfied
CN(C)CC1(COc2nc(N3CCC[C@@](C)(O)C3)c3cnc(-c4cc(O)cc5cccc(Cl)c45)c(F)c3n2)CC1	Satisfied
C#Cc1cccc2cc(O)cc(-c3ncc4c(N5CCC[C@@](C)(O)C5)nc(OC[C@@]56CCCN5C[C@H](F)C6)nc4c3F)c12	Satisfied
C#Cc1cccc2cc(O)cc(-c3c(F)cc4c(N5CCCC(O)(CO)C5)nc(OC[C@@]56CCCN5C[C@H](F)C6)nc4c3F)c12 (stereo partly shown)	Satisfied
CN(C)CC1(COc2nc(N3CCCC(O)CC3)c3cc(Cl)c(-c4ccc(F)c5sc(N)nc45)c(F)c3n2)CC1 (stereo not shown)	Not satisfied
